All values here come from patent US10889592B2.

Dear all, this message contains pIC50 results, target or system USP28 (Homo sapiens (Human), UniProt Q96RU2).
pIC50: −log10 of the molar value.

Cc1cnc2c(N)c(C(=O)NC[C@H](C)c3cc(F)c(N4CC5CCC(C4)N5)cc3F)sc2n1 (single isomer, unassigned) :: > 6.70

Observed pIC50 on USP28 (Homo sapiens (Human), UniProt Q96RU2), entry `Cc1cnc2c(N)c(C(=O)NCCc3ccc(N4CC5CCC(C4)N5)cc3F)sc2n1` , equals > 6.70

---

pIC50: −log10 of the molar value.
Dear all, this message contains pIC50 results, target or system USP25 (Homo sapiens (Human), UniProt Q9UHP3).

CCc1cnc2c(N)c(C(=O)NCCc3ccc(N4CC5CCC(C4)N5)cc3)sc2n1 :: 5.70 to 6.70
Cc1cnc2c(N)c(C(=O)NCCc3c(F)cc(N4CC5CNCC(C4)O5)cc3F)sc2n1 :: > 6.70
Cc1cnc2c(N)c(C(=O)NC[C@H](C)c3ccc(N4CC5CCC(C4)N5)c(C#N)c3)sc2n1 (single isomer, unassigned) :: 5.00 to 5.70
Cc1cnc2c(N)c(C(=O)NC[C@H](C)c3ccc(N4CC5CCC(C4)N5)c(F)c3)sc2n1 (single isomer, unassigned) :: 5.00 to 5.70
Cc1cnc2c(N)c(C(=O)NC[C@H](C)c3cc(F)c(N4CC5CNCC(C4)O5)cc3F)sc2n1 (single isomer, unassigned) :: 5.70 to 6.70

Switching to the query record.
Reported pIC50 ( `Cc1cnc2c(N)c(C(=O)NCCc3ccc(N4CC5CCC(C4)N5)c(F)c3)sc2n1` ) = > 6.70

---

target: USP28 (Homo sapiens (Human), UniProt Q96RU2)
Sequence (Q96RU2 whole entry): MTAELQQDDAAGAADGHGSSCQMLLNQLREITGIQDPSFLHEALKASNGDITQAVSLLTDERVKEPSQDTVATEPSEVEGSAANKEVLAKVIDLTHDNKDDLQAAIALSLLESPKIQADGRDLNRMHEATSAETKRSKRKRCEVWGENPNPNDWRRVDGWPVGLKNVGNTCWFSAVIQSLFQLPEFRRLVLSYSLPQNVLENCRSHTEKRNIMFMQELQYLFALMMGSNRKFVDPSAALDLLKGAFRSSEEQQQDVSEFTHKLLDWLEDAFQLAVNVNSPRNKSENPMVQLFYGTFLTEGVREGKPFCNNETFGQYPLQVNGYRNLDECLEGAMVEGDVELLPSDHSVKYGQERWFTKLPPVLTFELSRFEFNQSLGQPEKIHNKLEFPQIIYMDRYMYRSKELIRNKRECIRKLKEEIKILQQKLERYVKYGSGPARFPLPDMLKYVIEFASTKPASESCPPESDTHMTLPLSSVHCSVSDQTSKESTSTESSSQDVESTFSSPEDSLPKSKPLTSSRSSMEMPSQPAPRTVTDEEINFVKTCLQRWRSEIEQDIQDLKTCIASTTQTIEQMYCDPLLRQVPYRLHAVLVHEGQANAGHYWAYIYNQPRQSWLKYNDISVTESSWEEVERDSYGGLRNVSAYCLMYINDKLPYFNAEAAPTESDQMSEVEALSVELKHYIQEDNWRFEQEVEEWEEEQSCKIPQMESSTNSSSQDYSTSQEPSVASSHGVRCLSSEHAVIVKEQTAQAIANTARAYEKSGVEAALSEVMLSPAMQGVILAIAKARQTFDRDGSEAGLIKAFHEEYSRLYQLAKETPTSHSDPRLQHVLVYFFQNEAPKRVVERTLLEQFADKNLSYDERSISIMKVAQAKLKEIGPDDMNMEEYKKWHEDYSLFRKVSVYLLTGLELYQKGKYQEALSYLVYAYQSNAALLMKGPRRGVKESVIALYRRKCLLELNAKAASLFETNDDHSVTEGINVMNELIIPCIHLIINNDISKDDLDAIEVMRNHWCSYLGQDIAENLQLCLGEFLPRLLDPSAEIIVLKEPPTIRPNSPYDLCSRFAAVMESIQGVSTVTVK
pIC50: −log10 of the molar value.
molecules and their reported pIC50

Answered cases to consult:
Cc1cnc2c(N)c(C(=O)NC[C@H](C)c3ccc(N4CC5CCC(C4)N5)c(F)c3)sc2n1 (single isomer, unassigned) :: 5.70 to 6.70
Cc1cnc2c(N)c(C(=O)NC[C@@H](C)c3ccc(N4CC5CCC(C4)N5)cc3F)sc2n1 (single isomer, unassigned) :: 5.70 to 6.70
Cc1cnc2c(N)c(C(=O)NC[C@@H](C)c3ccc(N4CC5CCC(C4)N5)c(C#N)c3)sc2n1 (single isomer, unassigned) :: 5.00 to 5.70
Cc1cnc2c(N)c(C(=O)NCCc3c(F)cc(N4CC5CNCC(C4)O5)cc3F)sc2n1 :: > 6.70
Cc1cnc2c(N)c(C(=O)NCCc3ccc(N4CCNCC4)cc3)sc2n1 :: 5.70 to 6.70

Observed pIC50 on USP28 (Homo sapiens (Human), UniProt Q96RU2), entry `Cc1cnc2c(N)c(C(=O)NCCc3c(F)cc(N4CC5CCC(C4)N5)cc3F)sc2n1` , equals 5.70 to 6.70

Observed pIC50 on USP28 (Homo sapiens (Human), UniProt Q96RU2), entry `Cc1cnc2c(N)c(C(=O)NCCc3cc(F)c(N4CCNCC4)cc3F)sc2n1` , equals 5.70 to 6.70

Observed pIC50 on USP28 (Homo sapiens (Human), UniProt Q96RU2), entry Cc1cnc2c(N)c(C(=O)NC[C@@H](C)c3cc(F)c(N4CC5CNCC(C4)O5)cc3F)sc2n1 (single isomer, unassigned) , equals 5.70 to 6.70

---

molecules and their reported pIC50
Target: USP25 (Homo sapiens (Human), UniProt Q9UHP3)
Sequence (Q9UHP3 whole entry): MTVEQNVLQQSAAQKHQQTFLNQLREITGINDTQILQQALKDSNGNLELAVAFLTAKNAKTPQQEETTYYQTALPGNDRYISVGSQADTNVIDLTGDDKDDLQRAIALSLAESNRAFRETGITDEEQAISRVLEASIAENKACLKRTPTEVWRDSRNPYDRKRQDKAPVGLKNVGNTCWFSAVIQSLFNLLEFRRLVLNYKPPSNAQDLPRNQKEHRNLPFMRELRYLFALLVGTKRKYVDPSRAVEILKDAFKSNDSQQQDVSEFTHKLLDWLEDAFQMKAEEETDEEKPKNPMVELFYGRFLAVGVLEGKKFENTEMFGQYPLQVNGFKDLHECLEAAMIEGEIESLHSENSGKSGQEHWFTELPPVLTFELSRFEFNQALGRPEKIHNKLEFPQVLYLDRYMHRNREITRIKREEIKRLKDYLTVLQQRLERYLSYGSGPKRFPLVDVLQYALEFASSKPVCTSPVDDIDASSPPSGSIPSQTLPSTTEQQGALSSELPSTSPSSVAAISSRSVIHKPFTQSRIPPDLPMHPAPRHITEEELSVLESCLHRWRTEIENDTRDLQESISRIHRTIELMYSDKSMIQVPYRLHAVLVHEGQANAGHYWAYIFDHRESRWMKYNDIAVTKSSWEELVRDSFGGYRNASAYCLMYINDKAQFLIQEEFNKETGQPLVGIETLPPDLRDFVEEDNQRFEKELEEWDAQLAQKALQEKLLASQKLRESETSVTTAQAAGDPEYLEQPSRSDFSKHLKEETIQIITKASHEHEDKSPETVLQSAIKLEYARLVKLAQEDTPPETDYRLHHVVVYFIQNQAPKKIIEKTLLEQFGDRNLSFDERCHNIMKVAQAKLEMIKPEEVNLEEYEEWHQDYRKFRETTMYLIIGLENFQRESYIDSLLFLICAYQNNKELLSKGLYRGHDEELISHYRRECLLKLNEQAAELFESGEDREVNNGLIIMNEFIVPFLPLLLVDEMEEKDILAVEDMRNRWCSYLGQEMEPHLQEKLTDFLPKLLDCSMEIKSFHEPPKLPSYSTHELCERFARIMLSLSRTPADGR
Experiment: Ubiquitin-Rhodamine 110 Assay for USP25 Activity
Format: biochemical
Conditions: Ub-Rh110 substrate 25 nM, fluorescence readout
Protocol: The assay was performed in a final volume of 9 μL in assay buffer containing 20 mM Tris-HCl (pH 8.0, (1M Tris-HCl, pH 8.0 solution; Corning 46-031-CM)), 3 mM BME (2-Mercaptoethanol; Sigma 63689-25ML-F), 0.03% BGG ([…] filtered. Sigma, G7516-25G), and 0.01% Triton X-100 (Sigma, T9284-10L). […] Fluorescence was read on the Envision (Excitation at 485 nm and Emission at 535 nm; Perkin Elmer) or on the PheraSTAR (Excitation at 485 nm and Emission at 535 nm; BMG Labtech). […]
pIC50: −log10 of the molar value.

Answered cases to consult:
Cc1cnc2c(N)c(C(=O)NC[C@H](C)c3cc(F)c(N4CC5CCC(C4)N5)cc3F)sc2n1 (single isomer, unassigned) :: 5.00 to 5.70
Cc1cnc2c(N)c(C(=O)NCCc3ccc(N4CC5CCC(C4)N5)c(C#N)c3)sc2n1 :: 5.70 to 6.70

Switching to the query record.
Reported pIC50 ( Cc1cnc2c(N)c(C(=O)NC[C@@H](C)c3ccc(N4CC5CCC(C4)N5)c(F)c3)sc2n1 (single isomer, unassigned) ) = 5.00 to 5.70

---

Dear all, this message contains IC50 results, target or system USP28 (Homo sapiens (Human), UniProt Q96RU2).

Answered cases to consult:
Cc1cnc2c(N)c(C(=O)NCCc3cc(F)c(N4CC5CCC(C4)N5)cc3F)sc2n1 :: < 200 nM
Cc1cnc2c(N)c(C(=O)NCCc3ccc(N4CCNCC4)c(Cl)c3)sc2n1 :: 200 to 2000 nM
Cc1cnc2c(N)c(C(=O)NC[C@H](C)c3cc(F)c(N4CC5CNCC(C4)O5)cc3F)sc2n1 (single isomer, unassigned) :: 200 to 2000 nM
Cc1cnc2c(N)c(C(=O)NCCc3ccc(N4CC5CCC(C4)N5)c(Cl)c3)sc2n1 :: < 200 nM

Reported IC50 ( `Cc1cnc2c(N)c(C(=O)NCCc3ccc(N4CC5CCC(C4)N5)c(F)c3)sc2n1` ) = < 200 nM

---

Target: USP25 (Homo sapiens (Human))
Assay: Ubiquitin-Rhodamine 110 Assay for USP25 Activity
Assay type: biochemical
Settings: Ub-Rh110 substrate 25 nM, fluorescence readout
Experimental: The assay was performed in a final volume of 9 μL in assay buffer containing 20 mM Tris-HCl (pH 8.0, (1M Tris-HCl, pH 8.0 solution; Corning 46-031-CM)), 3 mM BME (2-Mercaptoethanol; Sigma 63689-25ML-F), 0.03% BGG ([…] filtered. Sigma, G7516-25G), and 0.01% Triton X-100 (Sigma, T9284-10L). […] Fluorescence was read on the Envision (Excitation at 485 nm and Emission at 535 nm; Perkin Elmer) or on the PheraSTAR (Excitation at 485 nm and Emission at 535 nm; BMG Labtech). […]
pIC50: −log10 of the molar value.
Measured endpoint: pIC50

Cc1cnc2c(N)c(C(=O)NC[C@@H](C)c3ccc(N4CC5CCC(C4)N5)cc3F)sc2n1 (single isomer, unassigned) :: 5.70 to 6.70
Cc1cnc2c(N)c(C(=O)NCCc3c(F)cc(N4CC5CCC(C4)N5)cc3F)sc2n1 :: 5.70 to 6.70
Cc1cnc2c(N)c(C(=O)NC[C@@H](C)c3ccc(N4CC5CCC(C4)N5)c(C#N)c3)sc2n1 (single isomer, unassigned) :: 5.00 to 5.70
Cc1cnc2c(N)c(C(=O)NCCc3ccc(N4CC5CCC(C4)N5)cc3F)sc2n1 :: 5.70 to 6.70
Cc1cnc2c(N)c(C(=O)NCCc3cc(F)c(N4CC5CCC(C4)N5)cc3F)sc2n1 :: 5.70 to 6.70

Reported pIC50 ( Cc1cnc2c(N)c(C(=O)NC[C@H](C)c3ccc(N4CC5CCC(C4)N5)cc3F)sc2n1 (single isomer, unassigned) ) = 5.00 to 5.70

Reported pIC50 ( `Cc1cnc2c(N)c(C(=O)NCCc3cc(F)c(N4CCNCC4)cc3F)sc2n1` ) = 5.00 to 5.70

Reported pIC50 ( Cc1cnc2c(N)c(C(=O)NC[C@@H](C)c3cc(F)c(N4CC5CNCC(C4)O5)cc3F)sc2n1 (single isomer, unassigned) ) = 5.70 to 6.70

---

pIC50: −log10 of the molar value.
Dear all, this message contains pIC50 results, target or system USP28 (Homo sapiens (Human), UniProt Q96RU2).

Cc1cnc2c(N)c(C(=O)NC[C@@H](C)c3ccc(N4CC5CCC(C4)N5)c(F)c3)sc2n1 (single isomer, unassigned) :: 5.70 to 6.70
Cc1cnc2c(N)c(C(=O)NCCc3ccc(N4CC5CCC(C4)N5)c(C#N)c3)sc2n1 :: 5.70 to 6.70
Cc1cnc2c(N)c(C(=O)NC[C@H](C)c3ccc(N4CC5CCC(C4)N5)cc3F)sc2n1 (single isomer, unassigned) :: 5.70 to 6.70

Observed pIC50 on USP28 (Homo sapiens (Human), UniProt Q96RU2), entry Cc1cnc2c(N)c(C(=O)NC[C@H](C)c3ccc(N4CC5CCC(C4)N5)c(C#N)c3)sc2n1 (single isomer, unassigned) , equals 5.00 to 5.70

Observed pIC50 on USP28 (Homo sapiens (Human), UniProt Q96RU2), entry Cc1cnc2c(N)c(C(=O)NC[C@@H](C)c3cc(F)c(N4CC5CCC(C4)N5)cc3F)sc2n1 (single isomer, unassigned) , equals 5.00 to 5.70

Observed pIC50 on USP28 (Homo sapiens (Human), UniProt Q96RU2), entry `CCc1cnc2c(N)c(C(=O)NCCc3ccc(N4CC5CCC(C4)N5)cc3)sc2n1` , equals 5.00 to 5.70
